- Method Notes: CCTE_Shafer_MEA_dev_network_spike_number: CCTE's Neural Network Formation Assay for Number of Network Spikes, Shafer Lab (AID 2284048);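 further: synchronized bursts across electrodes counted on days 5 7 9 12 and integrated as AUC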
- Procedure: CCTE_Shafer_MEA_dev assay is conducted using Axion Biosystems 48 well microelectrode array (MEA) plates and Maestro recording system. Each well of the MEA plate contains a grid of 16 microelectrodes embedded in the culture surface. Electrically active cells, such as neurons, can be cultured over the electrodes, and electrical activity in these cells can be recorded extracellularly. […]
Active and inactive are the calls of the source. How the source made its calls: active means hit-call score of the fitted dose curve at least 0.9, where 1 is the maximum; inactive means score below 0.9.
Outcomes: active, inactive

{"Mol": "CCOC(F)(F)C(F)(F)C(F)(F)C(F)(F)F", "Category": "inactive"}
{"Mol": "CC1(C)S[C@@H]2[C@H](NC(=O)COc3ccccc3)C(=O)N2[C@H]1C(=O)O", "Category": "inactive"}
{"Mol": "COC(F)(F)C(F)(C(F)(F)F)C(F)(F)F", "Category": "inactive"}
{"Mol": "CN(C)c1ccc(C(=N)c2ccc(N(C)C)cc2)cc1", "Category": "active"}
